Target: T1, engineered WW1-WW2rw tandem domains of WWOX (human, UniProt Q9NZC7 16-91, E66R | Y85W)
T1 sequence (looked up): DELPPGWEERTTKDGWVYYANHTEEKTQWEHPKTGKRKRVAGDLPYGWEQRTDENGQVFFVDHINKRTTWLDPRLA
Experiment: ITC
ENDPOINT: Kd (µM)
Answers are plain numbers, in µM.

Worked set:
| BINDER | Kd (µM) |
| --- | --- |
| PGTPPPPYTVAP [WBP1_PY2 peptide (12-mer spanning the PY2 PPXY motif of human WBP1)] | 101 |
| STFKPPAYEDVV [WBP1_PY1 peptide (12-mer spanning the PY1 PPXY motif of human WBP1)] | 103 |

What value of Kd has been recorded for this entry: VQPPPPPYPGPM [WBP2_PY2 peptide (12-mer spanning the PY2 PPXY motif of human WBP2)]
86
